Catalogue of TGI values
Tested on: 786-0 renal
Experiment: NCI tumour cell line growth inhibition, 48 h
recorded metric: TGI

CSC(=NC(=O)c1ccccc1Cl)SCCSC(=NC(=O)c1ccccc1Cl)SC : > 100 µM
NCCCCC(NC(=O)C(N)CCCN=C(N)N)C(=O)NC(CCCCN)C(=O)NC(CCCN=C(N)N)C(=O)NC(CCCN=C(N)N)C(=O)NC(CCC(N)=O)C(=O)NC(CCCN=C(N)N)C(=O)NC(CCCN=C(N)N)C(=O)NC(CCCN=C(N)N)C(=O)NCC(=O)NCC(=O)O (centres undefined) : > 50 µM
Cc1ccc(/C=C/C(=O)c2ccc(Cl)c(Cl)c2)cc1 : > 100 µM
S=C(NCc1ccccc1)Nc1sc(=NCc2ccccc2)nc2sc3c(c12)CCN(N1CCc2c(sc4nc(=NCc5ccccc5)sc(NC(=S)NCc5ccccc5)c24)C1)C3 : > 40.9 µM

====

Tested on: MCF7 breast
Experiment: NCI tumour cell line growth inhibition, 48 h; in the data active means GI50 below about 0.43 µM; inactive means the rest
Labels: class 1 (active), class 0 (inactive)

CC1=C([Te]c2ccccc2)C(=O)c2ccccc2C1=O : class 1
CCN1CCN(CCNc2nccc(-c3c(-c4ccc(F)c(O)c4)nc4occn34)n2)S1(=O)=O : class 0
COc1cc(CCC[P+](c2ccccc2)(c2ccccc2)c2ccccc2)c(OC)c2c1OCO2 : class 0
COc1ccc2c(c1)CCC1C2CC[C@@]2(C)C1CC[C@@H]2NC(=O)Cc1ccc(O)c(O)c1 (some centres undefined) : class 0

====

System: OVCAR-4 ovarian
Test: NCI tumour cell line growth inhibition, 48 h
Catalogue of TGI values
recorded metric: TGI

CCOC(=O)c1c(N)sc2c1CC(C)CC2 (stereo not drawn) : > 100 µM
CC1=C([Te]c2ccccc2)C(=O)c2ccccc2C1=O : 3.53 µM
O=S(=O)(N=C1C(Cl)=C(Cl)C(=NS(=O)(=O)c2ccccc2)C(Cl)=C1Cl)c1ccccc1 : > 100 µM
COc1ccc(/[N+]([O-])=C/c2ccc(OC(=S)S)c(OC)c2)cc1 : 49 µM
C(=N\Nc1ncc(-c2cc3cc4c(cc3o2)OCO4)s1)/c1ccco1 : 12.2 µM
CCOP(=O)(CC(=O)C1CC1)OCC : > 100 µM
COC(=O)C1=C(C)NC(=O)N2[C@@H](CCOCc3ccccc3)CC[C@@H]12 : > 50 µM
CN(C)c1ccc(/C=N/NC(N)=S)nc1 : > 100 µM
COc1ccc(NC(=O)Oc2ccc3c(C)cc(=O)oc3c2)c(OC)c1 (tested in a mixture with another compound) : > 100 µM
C[C@H](Nc1nc(N)c(N=O)c(=O)n1C)C(=O)O : > 10 µM
Cc1ccc(OP(=O)(Oc2ccc(C)cc2)N2C=Cc3ccccc3C2C#N)cc1 (stereo not drawn) : > 100 µM
Nc1nc(Cl)cc(NCC2(CCO)CCC2)n1 : > 100 µM
CSC(=O)C[C@@]12O[C@@H]([C@@H](C)C3CCC4[C@@H]5C(O)CC6=CC(=O)C=C[C@]6(C)C5CC[C@@]43C)C[C@](C)(O1)C(C)(C)O2 (stereo partly drawn) : 28.3 µM

====

Catalogue of GI50 values
System: SK-OV-3 ovarian
Test: NCI tumour cell line growth inhibition, 48 h
recorded metric: GI50

O=S(=O)(N=C1C(Cl)=C(Cl)C(=NS(=O)(=O)c2ccccc2)C(Cl)=C1Cl)c1ccccc1 : 43.2 µM
COc1ccccc1C#Cc1ccccc1C#Cc1ccc(OCCCCCCOc2ccccc2C#Cc2ccccc2C#Cc2ccccc2OC)cc1 : > 100 µM
CC(=O)O.CN1[CH-]N(Cc2ccc(C#N)cc2)c2ccccc21.[Ag+] : 24.4 µM
C=C(C)[C@@H]1CC[C@]2(CO)CC[C@]3(C)[C@H](CC[C@@H]4[C@@]5(C)CCCNC(C)(C)[C@@H]5CC[C@]43C)[C@@H]12 : 1.83 µM
COc1cc(-c2nn(-c3cccc(NC(=O)Nc4ccc(Cl)c(C(F)(F)F)c4)c3)cc2-c2ccncc2)ccc1Cl : 1.45 µM
CC1=C(C#N)C23C(=O)N(c4ccccc4)C(=O)C2=C(O)C=CC3(O)N1Cc1ccc(Cl)cc1Cl (stereo not drawn) : 11.2 µM
O=C(O)Cc1cccc2c(=O)cc(-c3ccccc3)oc12 : > 813 µM
CCC1=C(c2ccc(OC)cc2)C(C)(C)Oc2c1ccc(O)c2CN1CCCC1 : 8.23 µM
COc1ccc2cc(-c3cnc4nonc4n3)ccc2c1 : 10.8 µM
COc1ccc(Nc2nc(NCCNc3ccnc4cc(Cl)ccc34)nc(N3CCOCC3)n2)cc1 : 11.7 µM
COc1cc2nc(N3CCCN(C)CC3)nc(NC3CCN(Cc4ccccc4)CC3)c2cc1OC : 3.19 µM
Fc1cccc(COc2ccc(Nc3ncnc4onc(-c5ccccc5)c34)cc2)c1 : 0.459 µM
CCOC(=O)C(=Cc1ccc(C#N)cc1)C(=O)OCC : 9.86 µM
